- Tested on: 60 human tumor cell lines
- assay_text: cells
- experimental_conditions: read-out: Range of Growth, %
measured_parameter: activity at 10 µM

activity at 10 µM reading for C=C(C)[C@@H]1CC[C@]2(C(=O)OC)CC[C@]3(C)[C@H](CC[C@@H]4[C@@]5(C)C/C(=C/NC(N)=S)C(=O)C(C)(C)[C@@H]5CC[C@]43C)[C@@H]12 [Compound 26] : 60.9 to 126%

Each molecule below has a recorded value; state its activity at 10 µM.
1. C=C(C)[C@@H]1CC[C@]2(C(=O)NCCNCCN)CC[C@]3(C)[C@H](CC[C@@H]4[C@@]5(C)CCC(=O)C(C)(C)[C@@H]5CC[C@]43C)[C@@H]12 [Compound 12]
2. C=C(C)[C@@H]1CC[C@]2(C(=O)N3CCCNCC3)CC[C@]3(C)[C@H](CC[C@@H]4[C@@]5(C)CCC(=O)C(C)(C)[C@@H]5CC[C@]43C)[C@@H]12 [Compound 2]
3. C=C(C)[C@@H]1CC[C@]2(C(=O)NCCCCCCN(CCCN)CCCN)CC[C@]3(C)[C@H](CC[C@@H]4[C@@]5(C)CCC(=O)C(C)(C)[C@@H]5CC[C@]43C)[C@@H]12 [Compound 13]
4. C=C(C)[C@@H]1CC[C@]2(C(=O)NCCNCCN)CC[C@]3(C)[C@H](CC[C@@H]4[C@@]5(C)CC[C@H](O)C(C)(C)[C@@H]5CC[C@]43C)[C@@H]12 [Compound 7]

["59.1 to 141%", "8.04 to 127%", "85.8 to 118%", "53.8 to 147%"]

====

Would you kindly list GI50 for each of these compounds?
- Tested on: SF-268
- assay_text: NCI-60 SRB screen: CNS cancer SF-268
- Format: cell-based, human
- experimental_conditions: Homo sapiens; SF-268; five concentrations, 48 h, SRB; read-out: GI50
Please report the result as a number followed by the unit.

# compound C=C(C)[C@@H]1CC[C@]2(C(=O)NCCNCCNCCN)CC[C@]3(C)[C@H](CC[C@@H]4[C@@]5(C)CC[C@H](O)C(C)(C)[C@@H]5CC[C@]43C)[C@@H]12 ; its GI50 = 13.5 µM

The value of GI50 measured for the compound CC(=O)OCC12CCC(C(C)C(N)=O)C1C1CCC3C4(C)CCC(OC(C)=O)C(C)(C)C4CCC3(C)C1(C)CC2 (centres unmarked) turned out to be 6.95 µM

Per the records, this compound ( C=C(C)[C@@H]1CC[C@]2(C(=O)NCCCN)CC[C@]3(C)[C@H](CC[C@@H]4[C@@]5(C)CCC(=O)C(C)(C)[C@@H]5CC[C@]43C)[C@@H]12 ) has GI50 equal to 23 µM

get_value(item= C=C(C)[C@@H]1CC[C@]2(C(=O)NCCNCCNCCN)CC[C@]3(C)[C@H](CC[C@@H]4[C@@]5(C)CCC(=O)C(C)(C)[C@@H]5CC[C@]43C)[C@@H]12 , readout=GI50) returns 7.53 µM

Next:
Lab book: GI50 of C=C(C)[C@@H]1CC[C@]2(C(=O)OC)CC[C@]3(C)[C@H](CC[C@@H]4[C@@]5(C)CCC(=NOCCC(=NOCCC#N)NCCC#N)C(C)(C)[C@@H]5CC[C@]43C)[C@@H]12 noted as 11.4 µM
